# test: Inhibition of Saccharomyces cerevisiae alpha-glucosidase using p-nitrophenyl-alpha-D-glucopyranoside as substrate after 30 mins
Catalogue of pIC50 readings, one per entry.
Scale note: pIC50 = -log10(concentration in M).

COc1cc([C@@H](OC)[C@@H]2CO[C@H](c3ccc(O)c(OC)c3)[C@@H]2CO)ccc1O (relative stereo): 3.77
COc1cc([C@H]2c3cc(O)c(OC)cc3C[C@H]3[C@H](OC)OC[C@H]23)ccc1O: 4.45
COc1cc([C@H]2c3cc(O)c(OC)cc3C[C@H]3C(=O)OC[C@H]23)ccc1O: 3.71

Attention now shifts to the item below.
Prompt: Look up pIC50 for this molecule: "COc1cc([C@H]2c3cc(O)c(OC)cc3C[C@H]3[C@@H](OC)OC[C@H]23)ccc1O"
Response: 4.41

====

As shown below, each of these molecules has a reported IC50 value.
# test: Inhibition of Saccharomyces cerevisiae alpha-glucosidase using p-nitrophenyl-alpha-D-glucopyranoside as substrate after 30 mins
Respond numerically; units are µM and should not be typed.

C[C@H]1O[C@H](O[C@H]2[C@H](O)[C@@H](O)[C@@H](O[C@H]3[C@H](O)[C@@H](O)C(O)O[C@@H]3CO)O[C@@H]2CO)[C@H](O)[C@@H](O)[C@@H]1N[C@H]1C=C(CO)[C@@H](O)[C@H](O)[C@H]1O (stereo partly drawn): 215
COc1cc2c(cc1O)C1c3cc(O)c(O)cc3C(=O)C(C2)C1CO (stereo not drawn): 135

Here's the next entry for you.
Prompt: Consider the molecule "COc1cc(C[C@H]2[C@@H](OC)OC[C@@H]2[C@H](OC)c2ccc(O)c(OC)c2)ccc1O" and give its measured IC50.
Response: 133

====

# test: Inhibition of Saccharomyces cerevisiae alpha-glucosidase using p-nitrophenyl-alpha-D-glucopyranoside as substrate after 30 mins
Some molecules, each annotated with its measured pIC50.
The scale used: pIC50 is minus the common logarithm of the concentration in molar units.

COc1cc2c(cc1O)C1c3cc(OC)c(O)cc3C(=O)C(C2)C1CO (centres undefined): 4.28
COc1cc(C[C@H]2C(=O)OC[C@@H]2C(=O)c2ccc(O)c(OC)c2)ccc1O: 4.10

Prompt: Entry under review: COc1cc(C[C@H]2COC(=O)[C@@H]2Cc2ccc(O)c(OC)c2)ccc1O [MATAIRESINOL] . Reported pIC50?
Response: 3.76

Prompt: So what's the measured pIC50 for this one? COc1cc([C@H]2OC[C@@H]([C@@H](OC)c3ccc(O)c(OC)c3)[C@H]2CO)ccc1O (relative stereo)
Response: 4.37
